Provenance of the data: ChEMBL document CHEMBL1156511

Experimental System: ATP-dependent translocase ABCB1 (Homo sapiens, UniProt P08183, F728C/I306R/L339C)
Sequence (P08183 whole entry I306R/L339C/F728C): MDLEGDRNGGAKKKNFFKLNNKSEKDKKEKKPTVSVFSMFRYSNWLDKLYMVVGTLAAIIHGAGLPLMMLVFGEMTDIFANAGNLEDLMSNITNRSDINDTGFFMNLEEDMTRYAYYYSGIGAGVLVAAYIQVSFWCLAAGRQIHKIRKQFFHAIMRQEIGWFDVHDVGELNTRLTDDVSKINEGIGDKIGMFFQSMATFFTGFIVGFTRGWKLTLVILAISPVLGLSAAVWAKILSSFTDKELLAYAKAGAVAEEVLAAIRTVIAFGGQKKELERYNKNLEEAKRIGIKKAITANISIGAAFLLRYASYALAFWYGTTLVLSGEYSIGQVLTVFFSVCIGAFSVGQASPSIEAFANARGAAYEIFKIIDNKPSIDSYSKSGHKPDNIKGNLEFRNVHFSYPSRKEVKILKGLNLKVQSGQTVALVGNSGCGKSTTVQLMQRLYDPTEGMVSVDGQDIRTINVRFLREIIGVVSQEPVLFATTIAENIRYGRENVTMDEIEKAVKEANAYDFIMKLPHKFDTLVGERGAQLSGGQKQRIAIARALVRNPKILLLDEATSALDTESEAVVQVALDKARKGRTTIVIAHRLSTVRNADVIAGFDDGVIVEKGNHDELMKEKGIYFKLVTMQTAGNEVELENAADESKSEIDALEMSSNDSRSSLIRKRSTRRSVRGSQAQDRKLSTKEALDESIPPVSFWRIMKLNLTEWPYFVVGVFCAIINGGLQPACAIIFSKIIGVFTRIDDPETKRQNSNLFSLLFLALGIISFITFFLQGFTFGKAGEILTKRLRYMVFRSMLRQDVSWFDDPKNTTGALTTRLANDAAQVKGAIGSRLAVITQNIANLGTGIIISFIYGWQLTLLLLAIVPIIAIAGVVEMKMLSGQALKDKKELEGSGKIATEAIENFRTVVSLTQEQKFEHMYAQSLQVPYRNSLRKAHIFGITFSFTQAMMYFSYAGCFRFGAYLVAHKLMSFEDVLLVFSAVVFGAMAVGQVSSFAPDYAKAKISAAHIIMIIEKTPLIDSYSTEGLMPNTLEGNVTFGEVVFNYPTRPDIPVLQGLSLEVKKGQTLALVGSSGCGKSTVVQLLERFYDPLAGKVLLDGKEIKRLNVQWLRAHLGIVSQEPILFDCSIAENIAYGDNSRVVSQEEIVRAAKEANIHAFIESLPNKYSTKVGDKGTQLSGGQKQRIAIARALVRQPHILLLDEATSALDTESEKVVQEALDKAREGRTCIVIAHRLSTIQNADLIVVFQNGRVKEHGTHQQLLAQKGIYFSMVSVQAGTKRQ
Test Description: Inhibition of cross-linking of human Pgp TM5 I306R/TM6 L339C/TM7 F728C mutant expressed in HEK293 cells assessed as drug level causing 50% inhibition of cross linking by immunoblot
Experimental Parameters: read-out: Activity
Endpoint Name: IC50 (µM)
Value expressed in µM; do not type the unit.

Would you kindly share the measured IC50 for CCN(CC)c1ccc2c(-c3ccccc3C(=O)O)c3ccc(=[N+](CC)CC)cc-3oc2c1 ?
96

###

Experimental System: ATP-dependent translocase ABCB1 (Homo sapiens, UniProt P08183, T199C)
Sequence (P08183 whole entry T199C): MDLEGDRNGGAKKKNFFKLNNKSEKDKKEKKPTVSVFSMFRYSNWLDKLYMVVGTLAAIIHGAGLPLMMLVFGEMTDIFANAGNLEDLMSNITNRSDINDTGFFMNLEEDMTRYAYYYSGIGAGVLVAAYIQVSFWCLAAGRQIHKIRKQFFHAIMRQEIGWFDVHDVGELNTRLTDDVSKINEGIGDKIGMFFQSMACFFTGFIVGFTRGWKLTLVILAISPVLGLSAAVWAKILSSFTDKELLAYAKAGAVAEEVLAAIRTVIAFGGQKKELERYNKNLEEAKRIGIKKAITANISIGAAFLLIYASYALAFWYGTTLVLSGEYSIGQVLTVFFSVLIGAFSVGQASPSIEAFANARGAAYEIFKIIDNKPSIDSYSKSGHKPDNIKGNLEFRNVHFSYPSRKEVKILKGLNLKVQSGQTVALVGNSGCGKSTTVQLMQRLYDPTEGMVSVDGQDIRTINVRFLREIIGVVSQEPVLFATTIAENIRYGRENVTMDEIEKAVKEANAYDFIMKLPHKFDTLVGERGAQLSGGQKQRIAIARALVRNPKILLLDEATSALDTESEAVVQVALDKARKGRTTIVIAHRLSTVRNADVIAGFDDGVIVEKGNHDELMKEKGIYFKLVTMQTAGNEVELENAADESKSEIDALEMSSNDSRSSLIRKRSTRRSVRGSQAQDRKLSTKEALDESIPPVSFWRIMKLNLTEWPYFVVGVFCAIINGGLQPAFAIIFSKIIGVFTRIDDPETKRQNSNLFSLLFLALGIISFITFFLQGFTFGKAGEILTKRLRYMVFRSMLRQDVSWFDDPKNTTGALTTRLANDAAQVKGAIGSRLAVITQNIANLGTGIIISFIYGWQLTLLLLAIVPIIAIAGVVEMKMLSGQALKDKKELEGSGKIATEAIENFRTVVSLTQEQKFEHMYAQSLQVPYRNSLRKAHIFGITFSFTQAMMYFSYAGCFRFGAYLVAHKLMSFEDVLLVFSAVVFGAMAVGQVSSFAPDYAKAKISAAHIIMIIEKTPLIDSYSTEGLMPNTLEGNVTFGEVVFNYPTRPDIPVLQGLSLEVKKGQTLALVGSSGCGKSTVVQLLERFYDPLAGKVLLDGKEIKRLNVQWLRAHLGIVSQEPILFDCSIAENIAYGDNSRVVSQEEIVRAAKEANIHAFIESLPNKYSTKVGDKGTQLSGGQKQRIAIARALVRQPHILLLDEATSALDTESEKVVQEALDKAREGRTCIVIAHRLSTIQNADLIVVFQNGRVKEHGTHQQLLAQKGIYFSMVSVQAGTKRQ
Test Description: Activation of ATPase activity of human histidine-tagged Pgp TM3 T199C mutant expressed in HEK293 cells assessed as drug level causing half-maximal activation
Experimental Parameters: read-out: Activity
Endpoint Name: EC50

So what EC50 did CCN(CC)c1ccc2c(-c3ccc(S(=O)(=O)NCCSS(C)(=O)=O)cc3S(=O)(=O)O)c3ccc(=[N+](CC)CC)cc-3oc2c1.[Cl-] get with ATP-dependent translocase ABCB1 (Homo sapiens, UniProt P08183, T199C)?
880 µM
